procedure text: in vitro
conditions used: pig, LLC-PK1
readout name: Papp (×10⁻⁶ cm/s)
Just the number in ×10⁻⁶ cm/s, nothing appended.

Prompt: What does the record list as Papp for COc1cc(-c2cn([C@H]3CCc4c(F)cccc4N(CC(F)(F)F)C3=O)nn2)ccc1-n1cnc(C)c1 ?
Response: 21

###

procedure text: in vivo
conditions used: Sprague-Dawley, rat, po, 2 mg/kg
readout name: bioavailability (%)
Just the number in %, nothing appended.

Prompt: What does the record list as bioavailability for COc1cc(-c2cn([C@H]3CCc4c(F)cccc4N(CC(F)(F)F)C3=O)nn2)ccc1-n1cnc(C)c1 ?
Response: 100

###

procedure text: in vivo
conditions used: APP YAC Tg, mouse, brain, 100 mg/kg
readout name: concentration at 6 h (nM)
Just the number in nM, nothing appended.

Prompt: What does the record list as concentration at 6 h for COc1cc(-c2cn([C@H]3CCc4c(F)cccc4N(CC(F)(F)F)C3=O)nn2)ccc1-n1cnc(C(F)(F)F)c1 ?
Response: 870

Where do the numbers come from? From ChEMBL document CHEMBL3608233.
